Values compiled from ChEMBL document CHEMBL2150889.

target_of_assay: Metabotropic glutamate receptor 5 (Homo sapiens, UniProt P41594)
procedure_text: Negative allosteric modulation of human mGluR5 expressed in recombinant HEK293 cells by FLIPR assay
Format: cell-based
Set-up: concentration or dose not given beside the values
condition_context: concentration not given here
Sequence (P41594 21-1212 limits assumed): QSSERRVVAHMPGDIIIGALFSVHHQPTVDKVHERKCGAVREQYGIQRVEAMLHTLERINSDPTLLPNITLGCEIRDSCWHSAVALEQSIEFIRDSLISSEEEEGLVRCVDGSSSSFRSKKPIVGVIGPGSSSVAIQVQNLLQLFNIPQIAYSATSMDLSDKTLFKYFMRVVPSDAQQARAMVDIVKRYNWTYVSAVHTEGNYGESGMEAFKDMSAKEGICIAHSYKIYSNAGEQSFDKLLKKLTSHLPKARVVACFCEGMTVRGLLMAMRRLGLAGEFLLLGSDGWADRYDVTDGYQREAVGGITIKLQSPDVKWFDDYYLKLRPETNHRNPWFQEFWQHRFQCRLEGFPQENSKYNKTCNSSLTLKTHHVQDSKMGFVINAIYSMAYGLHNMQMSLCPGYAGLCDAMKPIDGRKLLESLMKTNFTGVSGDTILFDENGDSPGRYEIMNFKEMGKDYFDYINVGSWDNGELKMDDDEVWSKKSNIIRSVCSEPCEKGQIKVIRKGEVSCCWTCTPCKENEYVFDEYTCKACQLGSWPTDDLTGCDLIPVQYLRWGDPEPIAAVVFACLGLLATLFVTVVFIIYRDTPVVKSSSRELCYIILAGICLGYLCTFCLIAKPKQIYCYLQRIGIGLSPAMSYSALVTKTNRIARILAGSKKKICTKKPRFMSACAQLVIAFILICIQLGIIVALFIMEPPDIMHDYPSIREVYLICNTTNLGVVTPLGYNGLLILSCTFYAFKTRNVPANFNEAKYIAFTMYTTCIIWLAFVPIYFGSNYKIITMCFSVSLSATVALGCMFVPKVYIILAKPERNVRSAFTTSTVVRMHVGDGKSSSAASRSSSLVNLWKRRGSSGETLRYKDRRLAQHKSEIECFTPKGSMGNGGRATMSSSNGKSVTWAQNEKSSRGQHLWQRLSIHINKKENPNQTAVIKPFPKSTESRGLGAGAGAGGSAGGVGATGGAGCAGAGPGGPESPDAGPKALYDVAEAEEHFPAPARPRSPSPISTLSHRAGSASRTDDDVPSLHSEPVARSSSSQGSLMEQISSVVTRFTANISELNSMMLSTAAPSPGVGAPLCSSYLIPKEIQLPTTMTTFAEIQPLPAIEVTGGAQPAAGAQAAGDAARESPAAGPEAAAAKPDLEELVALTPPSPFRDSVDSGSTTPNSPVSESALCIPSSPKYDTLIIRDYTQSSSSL
Parameter inhibition: see the listing below.
outcome_measure: inhibition (%)

> print(dat)
                                   compound                           target.of.assay  test.result
1  O=S(=O)(c1ccc(F)cc1)N1CC(c2nc(-c3cccc(Cl)c3)no2)C1  Metabotropic glutamate receptor 5 (Homo sapiens, UniProt P41594)           85
2  CC1CCN(C(=O)N2CC(c3nc(-c4cccc(Cl)c4)no3)C2)C1 (stereo not given)  Metabotropic glutamate receptor 5 (Homo sapiens, UniProt P41594)           80
3  Cc1cccc(-c2noc(C3CN(S(=O)(=O)c4ccc(F)cc4)C3)n2)c1  Metabotropic glutamate receptor 5 (Homo sapiens, UniProt P41594)           74
4  Cc1cccc(-c2noc(C3CN(C(=O)c4cccc(F)c4)C3)n2)c1  Metabotropic glutamate receptor 5 (Homo sapiens, UniProt P41594)           62
5  O=C(c1ccc(F)cc1)N1CC(c2nc(-c3cccc(Cl)c3)no2)C1  Metabotropic glutamate receptor 5 (Homo sapiens, UniProt P41594)           60

---

target_of_assay: Metabotropic glutamate receptor 5 (Homo sapiens)
procedure_text: Positive allosteric modulation of human mGluR5 expressed in recombinant HEK293 cells by FLIPR assay
Reported EC50 values for the following compounds.
outcome_measure: EC50

> print(dat)
                                   compound  test.result
1  CC1CCN(C(=O)N2CC(c3nc(-c4cccc(Cl)c4)no3)C2)C1 (stereo not drawn)      > 10 µM
2  Cc1ccc(S(=O)(=O)N2CC(c3nc(-c4cccc(Cl)c4)no3)C2)cc1      > 10 µM
3  O=C(c1ccc(F)cc1)N1CC(c2nc(-c3cccc(Cl)c3)no2)C1      > 10 µM

---

Quick reference: log10 of EC50 of the listed items.
target_of_assay: Metabotropic glutamate receptor 5 (Homo sapiens)
procedure_text: Positive allosteric modulation of human mGluR5 expressed in recombinant HEK293 cells by FLIPR assay
outcome_measure: log10 of EC50 (log10 of the value in nM)

> print(dat)
                                   compound  outcome.measure  test.result
1  Cc1cccc(-c2noc(C3CN(C(=O)C4CCC(C(F)(F)F)CC4)C3)n2)c1 (configuration not stated)    log10 of EC50         3.00
2  O=C([C@@H]1CC2CCC1C2)N1CC(c2nc(-c3cccc(Cl)c3)no2)C1 (some centres not stated)    log10 of EC50         1.99
3  O=C(N1CCC(F)CC1)N1CC(c2nc(-c3cccc(Cl)c3)no2)C1    log10 of EC50         3.00
4  O=C(Cc1ccc(F)cc1)N1CC[C@H]1c1nc(-c2cccc(F)c2)no1    log10 of EC50         3.08
5  CC1CCCCC1C(=O)N1CC(c2nc(-c3cccc(F)c3)no2)C1 (configuration not stated)    log10 of EC50         2.73

---

target_of_assay: Metabotropic glutamate receptor 5 (Homo sapiens, UniProt P41594)
procedure_text: Positive allosteric modulation of human mGluR5 expressed in recombinant HEK293 cells by FLIPR assay
Format: cell-based
outcome_measure: Emax (%)

> print(dat)
                                    compound  outcome.measure  test.result
 1  O=C(C1CCC1)N1CC(c2nc(-c3cccc(Cl)c3)no2)C1             Emax           -7
 2  O=C(C1CCC(C(F)(F)F)CC1)N1CC(c2nc(-c3cccc(Cl)c3)no2)C1 (stereo not given)             Emax           40
 3  O=C(N1CCCC(F)C1)N1CC(c2nc(-c3cccc(Cl)c3)no2)C1 (stereo not given)             Emax           51
 4  O=C(c1ccccc1F)N1CC(c2nc(-c3cccc(Cl)c3)no2)C1             Emax          -12
 5  CC1CCN(C(=O)N2CC(c3nc(-c4cccc(Cl)c4)no3)C2)C1 (stereo not given)             Emax           88
 6  O=C(Cc1ccc(F)cc1)N1CC[C@H]1c1nc(-c2cccc(F)c2)no1             Emax           29
 7  Cc1cccc(-c2noc(C3CN(S(=O)(=O)c4ccc(Cl)cc4)C3)n2)c1             Emax            3
 8  O=C([C@@H]1CC2CCC1C2)N1CC(c2nc(-c3ccccc3)no2)C1 (stereo not given in full)             Emax           88
 9  Cc1cccc(-c2noc(C3CN(C(=O)C4CCC(C)CC4)C3)n2)c1 (stereo not given)             Emax           68
10  Cc1ccc(S(=O)(=O)N2CC(c3nc(-c4cccc(Cl)c4)no3)C2)cc1             Emax            2
